Molecular target: MLKL (full length) (Homo sapiens (Human))
Sequence (Q8NB16 whole entry): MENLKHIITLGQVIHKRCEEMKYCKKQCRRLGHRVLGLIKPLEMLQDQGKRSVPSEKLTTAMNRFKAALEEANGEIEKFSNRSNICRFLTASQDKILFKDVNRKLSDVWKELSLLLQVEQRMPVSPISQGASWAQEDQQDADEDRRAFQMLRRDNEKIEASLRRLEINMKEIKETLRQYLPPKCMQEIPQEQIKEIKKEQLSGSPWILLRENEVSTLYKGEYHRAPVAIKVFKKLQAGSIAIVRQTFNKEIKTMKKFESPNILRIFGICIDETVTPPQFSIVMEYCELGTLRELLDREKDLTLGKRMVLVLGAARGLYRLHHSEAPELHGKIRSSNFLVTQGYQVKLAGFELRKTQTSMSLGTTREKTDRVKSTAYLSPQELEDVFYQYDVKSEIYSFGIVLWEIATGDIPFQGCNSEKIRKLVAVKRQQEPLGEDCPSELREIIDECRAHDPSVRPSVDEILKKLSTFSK
Assay: KINOMEscan binding assay, MLKL (full length)
Conditions: Table 35
pKd: −log10 of the molar value.
measured endpoint: pKd

molecule=NC(=O)c1c(-c2ccc(NS(=O)(=O)CC(F)(F)F)c(OCc3ccccn3)c2)n[nH]c1Nc1cnccn1 measured_endpoint=pKd reported_result="> 8.00"
molecule=C[C@H](Oc1cc(-c2n[nH]c(Nc3ccccn3)c2C(N)=O)ccc1NS(=O)(=O)CC(F)(F)F)c1ccc(F)cc1 measured_endpoint=pKd reported_result="> 8.00"
molecule="COCC(Oc1cc(-c2n[nH]c(Nc3cc(C)on3)c2C(N)=O)ccc1NS(=O)(=O)C(F)F)c1ccc(F)cc1 (racemic)" measured_endpoint=pKd reported_result="> 8.00"
molecule=CCS(=O)(=O)Nc1ccc(-c2n[nH]c(Nc3cnccn3)c2C(N)=O)cc1OCCc1cccc(F)c1 measured_endpoint=pKd reported_result="> 8.00"
molecule=NC(=O)c1c(-c2ccc(NS(=O)(=O)C(F)F)c(Oc3ccc(F)cc3)c2)n[nH]c1Nc1cnccn1 measured_endpoint=pKd reported_result="> 8.00"
molecule=NC(=O)c1c(-c2ccc(NS(=O)(=O)CC(F)(F)F)cc2)n[nH]c1Nc1cccc(C(F)(F)F)n1 measured_endpoint=pKd reported_result="> 8.00"
molecule=NC(=O)c1c(-c2ccc(NS(=O)(=O)CC(F)(F)F)cc2OCc2ccc(F)cc2)n[nH]c1Nc1cccc(C(F)(F)F)n1 measured_endpoint=pKd reported_result="> 8.00"
molecule=N#Cc1cccc(Nc2[nH]nc(-c3ccc(NS(=O)(=O)C(F)F)cc3)c2C(N)=O)n1 measured_endpoint=pKd reported_result="> 8.00"
molecule=Cc1cc(Nc2[nH]nc(-c3ccc(NS(=O)(=O)C(F)F)c(O[C@@H](C)c4ccc(F)cc4)c3)c2C(N)=O)nn1C measured_endpoint=pKd reported_result="> 8.00"
molecule=CCS(=O)(=O)Nc1ccc(-c2n[nH]c(Nc3cnccn3)c2C(N)=O)cc1OCc1ccc(F)cc1 measured_endpoint=pKd reported_result="> 8.00"
molecule=NC(=O)c1c(-c2ccc(NS(=O)(=O)CC(F)(F)F)c(OCc3ccc(F)cc3)c2)n[nH]c1Nc1ccccn1 measured_endpoint=pKd reported_result="> 8.00"
molecule=CCS(=O)(=O)Nc1ccc(-c2n[nH]c(Nc3cnc4ccccc4n3)c2C(N)=O)cc1 measured_endpoint=pKd reported_result="> 8.00"
molecule=CCS(=O)(=O)Nc1ccc(-c2n[nH]c(Nc3ccccn3)c2C(N)=O)cc1OCc1ccc(F)cc1 measured_endpoint=pKd reported_result="> 8.00"
molecule=CCS(=O)(=O)Nc1ccc(-c2n[nH]c(Nc3cnc(C)cn3)c2C(N)=O)cc1 measured_endpoint=pKd reported_result="> 8.00"
